FYI, the data here is from ChEMBL document CHEMBL1128738.

- assay-system: Sigma non-opioid intracellular receptor 1 (Rattus norvegicus)
- assay-name: Binding affinity towards sigma receptor binding site 1 using [3H](+)-pentazocine
pIC50: −log10 of the molar value.
// FALSE strictly below 8 in pIC50; TRUE otherwise

line-notation: c1ccc(CN2CCC3(CCCc4ccccc43)CC2)cc1
class-label: TRUE
//
line-notation: CS(=O)(=O)n1cc(CCCCN2CCC3(CC2)OCc2ccccc23)c2ccccc21
class-label: TRUE
//
line-notation: COc1ccccc1C1CCN(CCCCc2c[nH]c3ccccc23)CC1
class-label: TRUE
//
line-notation: Cn1cc(CCCCN2CCC3(CC2)OCc2ccccc23)c2ccccc21
class-label: TRUE
//
line-notation: Fc1ccc(-n2cc(CCCCN3CCN(c4ccccc4)CC3)c3ccccc32)cc1
class-label: FALSE
//
line-notation: c1ccc(Cn2cc(CCCCN3CCC4(CC3)OCc3ccccc34)c3ccccc32)cc1
class-label: TRUE

* * *

- assay-system: Sigma non-opioid intracellular receptor 1 (Rattus norvegicus, UniProt Q9R0C9)
- Sequence (Q9R0C9 whole entry): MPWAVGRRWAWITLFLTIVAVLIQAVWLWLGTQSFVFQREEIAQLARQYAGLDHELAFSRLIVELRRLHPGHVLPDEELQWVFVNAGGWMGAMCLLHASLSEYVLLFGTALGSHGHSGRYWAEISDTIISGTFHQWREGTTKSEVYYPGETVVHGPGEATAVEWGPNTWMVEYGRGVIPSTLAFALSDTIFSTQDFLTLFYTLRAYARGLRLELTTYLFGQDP
- assay-name: Binding affinity towards sigma receptor binding site 1 using [3H](+)-pentazocine
log10 of IC50 listing for selected molecules.
endpoint: log10 of IC50 (log10 of the value in nM)

molecule: Fc1ccc(-n2cc(CN3CCC4(CC3)OCc3ccccc34)c3ccccc32)cc1
log10 of IC50: 0.48
--
molecule: Fc1ccc(-n2cc(CCCCN3CCC(c4ccccc4)CC3)c3ccccc32)cc1
log10 of IC50: 1.64
--
molecule: COc1ccccc1N1CCN(CCCCc2c[nH]c3ccccc23)CC1
log10 of IC50: 1.15
--
molecule: Fc1ccc(C2CCN(CCCCc3c[nH]c4ccccc34)CC2)cc1
log10 of IC50: 0.15
--
molecule: Fc1ccc(C2=CC3CCC(C2)N3CCCCc2cn(-c3ccc(F)cc3)c3ccccc23)cc1 (centres undefined)
log10 of IC50: 3.08
--
molecule: c1ccc2c(c1)COC21CCN(CCCCc2c[nH]c3ccccc23)CC1
log10 of IC50: 0.40
--
molecule: Fc1ccc(N2CCN(CCCCc3c[nH]c4ccccc34)CC2)cc1
log10 of IC50: 0.75
--
molecule: CC(=O)n1cc(CCCCN2CCC3(CC2)OCc2ccccc23)c2ccccc21
log10 of IC50: 0.76
--
molecule: c1ccc(C2CCN(CCCCc3c[nH]c4ccccc34)CC2)cc1
log10 of IC50: 0.18

* * *

- assay-system: Sigma non-opioid intracellular receptor 1 (Rattus norvegicus)
- assay-name: Binding affinity towards sigma receptor binding site 1 using [3H](+)-pentazocine
Simple rule here: IC50 less than 8 nM is TRUE, otherwise FALSE.

line-notation: Fc1ccc(N2CCN(CCCCc3cn(-c4ccc(F)cc4)c4ccccc34)CC2)cc1
assay-system: Sigma non-opioid intracellular receptor 1 (Rattus norvegicus)
class-label: FALSE
--
line-notation: c1ccc2c(c1)COC21CCN(CCCCc2cn(-c3nccs3)c3ccccc23)CC1
assay-system: Sigma non-opioid intracellular receptor 1 (Rattus norvegicus)
class-label: FALSE
--
line-notation: c1csc(-n2cc(CCCCN3CCC4(CC3)OCc3ccccc34)c3ccccc32)c1
assay-system: Sigma non-opioid intracellular receptor 1 (Rattus norvegicus)
class-label: TRUE
--
line-notation: Fc1ccc(-n2cc(CCN3CCC4(CC3)OCc3ccccc34)c3ccccc32)cc1
assay-system: Sigma non-opioid intracellular receptor 1 (Rattus norvegicus)
class-label: FALSE
--
line-notation: Fc1ccc(C2=CCN(CCCCc3c[nH]c4ccccc34)CC2)cc1
assay-system: Sigma non-opioid intracellular receptor 1 (Rattus norvegicus)
class-label: TRUE
